Every entry's value here was drawn from the kinase profiling compilation of Christmann-Franck et al. (2016).

- STUDY_SYSTEM: UniProtKB O75716
- Sequence (O75716 whole entry, looked up): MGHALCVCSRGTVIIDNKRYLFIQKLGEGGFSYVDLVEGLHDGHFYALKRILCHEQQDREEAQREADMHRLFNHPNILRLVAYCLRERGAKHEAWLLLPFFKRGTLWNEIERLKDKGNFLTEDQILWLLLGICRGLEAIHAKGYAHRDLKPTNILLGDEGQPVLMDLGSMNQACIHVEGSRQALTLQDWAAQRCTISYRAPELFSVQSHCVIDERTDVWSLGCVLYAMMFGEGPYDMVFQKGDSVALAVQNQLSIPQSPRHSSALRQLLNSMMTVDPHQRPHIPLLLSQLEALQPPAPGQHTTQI
- ASSAY_METHOD_TEXT: radiometric filter-binding kinase assay, Kinase HotSpot
- PROTOCOL_CONDITIONS: compound 0.5 µM; ATP 10 µM
VALUE_TYPE: residual activity (%)
Numbers only here, please. The scale is %.

> print(dat)
                               given.smiles      study.system  value.unit  test.result
1    N#Cc1c(NC(=O)c2cccc3ccccc23)sc2c1CCCC2  UniProtKB O75716           %         98.5
2        CCCCc1c(-c2ccc(O)cc2)[nH]c2nccnc12  UniProtKB O75716           %         55.4
3  N#C/C(=C1/Nc2ccccc2S1)c1ccnc(NCCc2cccnc2)n1  UniProtKB O75716           %         79.2
4  N#CCCc1ccc2c(c1)-c1[nH]c3ccc([N+](=O)[O-])cc3c1CC(=O)N2  UniProtKB O75716           %           87

Input O=c1c(-c2ccc(F)cc2)c(-c2ccncc2)[nH]n1-c1ccc(Cl)cc1 . Output residual activity: 100

# residual activity of O=S(=O)(NCCNC/C=C/c1ccc(Br)cc1)c1cccc2cnccc12 = 94.4

Quick note, residual activity for O=C1NC(=O)c2c1c1c3ccccc3[nH]c1c1[nH]c3cc(Br)ccc3c21 landed at 87.2

The value of residual activity measured for the molecule O=C(c1ccccc1)c1ccc(N2CCOCC2)cc1O turned out to be 104

residual activity in this record for Cc1cc(Nc2nc(-c3ccccc3)nc3ccccc23)n[nH]1 : 24.7

residual activity recorded for this molecule, CCOc1cc2ncnc(Nc3cccc(Br)c3)c2cc1OCC , is 98.4

So for O=c1c2ccccc2[nH]c(=S)n1CCN1CCC(=C(c2ccc(F)cc2)c2ccc(F)cc2)CC1 , the logged residual activity turned out to be 104
